The reported numbers originate from the NIST ThermoML archive (doi:10.1021/je9006597).

conditions: 313.15 K; 101 kPa; Liquid

compound: C1CCCCC1 [cyclohexane]
mass density [kg/m3]: 760.5
//
compound: COC(=O)c1ccccc1 [methyl benzoate]
mass density [kg/m3]: 1070.3
//
compound: CCCCCCCC [octane]
mass density [kg/m3]: 687
//
compound: CCCCCC [hexane]
mass density [kg/m3]: 642.2
//
compound: CCCCCCC [heptane]
mass density [kg/m3]: 667.2

###

conditions: 303.15 K; 101 kPa; Liquid; Pulse-echo method
endpointLabel: speed of sound (m/s)

compound: CCCCCC
endpointLabel: speed of sound
measurement: 1048
--
compound: COC(=O)c1ccccc1 [methyl benzoate]
endpointLabel: speed of sound
measurement: 1380
--
compound: CCCCCCCC
endpointLabel: speed of sound
measurement: 1148
--
compound: C1CCCCC1
endpointLabel: speed of sound
measurement: 1228
--
compound: CCCCCCC
endpointLabel: speed of sound
measurement: 1116
